Each entry below carries its recorded fold change of affinity.
Target: T1, Human CD3eg linker (human)
T1 construct: Single chain: epsilon and gamma subunits of human CD3 joined by a 29-mer linker, Flag-tag at the C-terminus; also called recombinant human CD3
T1 chain: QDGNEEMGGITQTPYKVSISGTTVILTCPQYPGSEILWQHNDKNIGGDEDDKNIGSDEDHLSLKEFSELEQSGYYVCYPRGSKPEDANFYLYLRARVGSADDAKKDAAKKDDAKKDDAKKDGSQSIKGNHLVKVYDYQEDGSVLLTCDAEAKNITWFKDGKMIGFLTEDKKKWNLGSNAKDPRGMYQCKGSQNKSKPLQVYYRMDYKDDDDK
Assay: Biacore SPR, vs template H183/L072
Return type: number; implicit unit fold.

Consider the reported fold change of affinity for these binders:
binder	fold change of affinity [fold]
H183/L072 VH K64I (antibody, name in Kabat numbering, V domains shown) VH: QVQLVESGGGLVQPGRSLRLSCAASGFTFSNAWMHWVRQAPGKGLEWVAQIKDKGNAYAAYYAPSVIGRFTISRDDSKNSIYLQMNSLKTEDTAVYYCHYVHYASASTVLPAFGVDAWGQGTTVTVSS VL: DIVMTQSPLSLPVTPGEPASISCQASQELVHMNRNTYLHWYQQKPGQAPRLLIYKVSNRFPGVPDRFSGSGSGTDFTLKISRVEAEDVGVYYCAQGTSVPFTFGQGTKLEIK	1
H183/L072 VH A54L (antibody, name in Kabat numbering, V domains shown) VH: QVQLVESGGGLVQPGRSLRLSCAASGFTFSNAWMHWVRQAPGKGLEWVAQIKDKGNLYAAYYAPSVKGRFTISRDDSKNSIYLQMNSLKTEDTAVYYCHYVHYASASTVLPAFGVDAWGQGTTVTVSS VL: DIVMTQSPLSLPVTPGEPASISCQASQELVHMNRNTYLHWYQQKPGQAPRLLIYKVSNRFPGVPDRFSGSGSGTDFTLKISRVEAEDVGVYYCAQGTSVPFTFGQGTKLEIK	1.1
H183/L072 VH H35Q (antibody, name in Kabat numbering, V domains shown) VH: QVQLVESGGGLVQPGRSLRLSCAASGFTFSNAWMQWVRQAPGKGLEWVAQIKDKGNAYAAYYAPSVKGRFTISRDDSKNSIYLQMNSLKTEDTAVYYCHYVHYASASTVLPAFGVDAWGQGTTVTVSS VL: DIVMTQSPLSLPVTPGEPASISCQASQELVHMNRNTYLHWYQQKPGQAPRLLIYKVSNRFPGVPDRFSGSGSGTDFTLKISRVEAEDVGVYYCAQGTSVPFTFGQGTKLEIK	0

Problem: Entry H183/L072 VH A57G (antibody, name in Kabat numbering, V domains shown) VH: QVQLVESGGGLVQPGRSLRLSCAASGFTFSNAWMHWVRQAPGKGLEWVAQIKDKGNAYAGYYAPSVKGRFTISRDDSKNSIYLQMNSLKTEDTAVYYCHYVHYASASTVLPAFGVDAWGQGTTVTVSS VL: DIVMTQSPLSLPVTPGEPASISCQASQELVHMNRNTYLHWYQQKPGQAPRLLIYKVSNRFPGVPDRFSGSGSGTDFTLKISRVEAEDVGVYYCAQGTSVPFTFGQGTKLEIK : reported fold change of affinity = ?
Solution: 0.7

Problem: If you can, please state the reported fold change of affinity value of H183/L072 VH H93I (antibody, name in Kabat numbering, V domains shown) VH: QVQLVESGGGLVQPGRSLRLSCAASGFTFSNAWMHWVRQAPGKGLEWVAQIKDKGNAYAAYYAPSVKGRFTISRDDSKNSIYLQMNSLKTEDTAVYYCIYVHYASASTVLPAFGVDAWGQGTTVTVSS VL: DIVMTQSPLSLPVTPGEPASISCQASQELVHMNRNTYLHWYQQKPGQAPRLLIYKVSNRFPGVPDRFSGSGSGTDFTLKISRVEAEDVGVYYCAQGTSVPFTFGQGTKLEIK .
Solution: 0
